- Test system: Middle East respiratory syndrome-related coronavirus
- experiment.summary: Antiviral activity against MERS-CoV infected in 1 hr pretreated human Huh-7 cells assessed as inhibition of viral growth at 10 uM measured after 48 hrs by plaque reduction assay relative to control
- Format: functional
- condition.parameters: time 49 hrs
Assignment: determine reported inhibition at 10 µM for the given compounds.
API: value field is a number in %; no unit string.

// fetch inhibition at 10 µM given entry CO[C@H]1C[C@@H]2CC[C@@H](C)[C@@](O)(O2)C(=O)C(=O)N2CCCC[C@H]2C(=O)O[C@H]([C@H](C)C[C@@H]2CC[C@@H](OCCO)[C@H](OC)C2)CC(=O)[C@H](C)/C=C(\C)[C@@H](O)[C@@H](OC)C(=O)[C@H](C)C[C@H](C)/C=C/C=C/C=C/1C
56

// fetch inhibition at 10 µM given entry CO[C@H]1C[C@@H]2CC[C@@H](C)[C@@](O)(O2)C(=O)C(=O)N2CCCC[C@H]2C(=O)O[C@H]([C@H](C)C[C@@H]2CC[C@@H](O)[C@H](OC)C2)CC(=O)[C@H](C)/C=C(\C)[C@@H](O)[C@@H](OC)C(=O)[C@H](C)C[C@H](C)/C=C/C=C/C=C/1C
40

// fetch inhibition at 10 µM given entry CCCCCCCCCCCCCCCCOP(=O)([O-])OCC[N+](C)(C)C
28

// fetch inhibition at 10 µM given entry COC[C@H]1OC(=O)c2coc3c2[C@@]1(C)C1=C(C3=O)[C@@H]2CCC(=O)[C@@]2(C)C[C@H]1OC(C)=O
40
